System: T1, human alpha2-Antiplasmin (human, UniProt P08697 40-491)
T1 sequence: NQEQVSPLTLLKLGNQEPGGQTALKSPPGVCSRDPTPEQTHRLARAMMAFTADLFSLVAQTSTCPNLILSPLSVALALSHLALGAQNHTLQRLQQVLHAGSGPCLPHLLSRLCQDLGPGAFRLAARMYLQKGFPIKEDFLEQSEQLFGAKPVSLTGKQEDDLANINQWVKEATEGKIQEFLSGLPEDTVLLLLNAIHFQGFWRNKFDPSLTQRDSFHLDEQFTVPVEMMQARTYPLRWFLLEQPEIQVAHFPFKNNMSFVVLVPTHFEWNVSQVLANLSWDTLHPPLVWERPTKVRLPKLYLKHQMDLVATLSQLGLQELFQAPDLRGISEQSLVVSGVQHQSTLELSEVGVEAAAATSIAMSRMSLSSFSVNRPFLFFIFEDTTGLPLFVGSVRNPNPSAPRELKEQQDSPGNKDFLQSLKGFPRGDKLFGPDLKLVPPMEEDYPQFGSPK
Method: cell-based or functional assay
Parameter: IC50, A2AP function blocking assay (Example 10)

Assign IC50, A2AP function blocking assay (Example 10) to the following record: TPP-17053 hIgG1 (antibody, V domains shown, Germline variant of TPP-14308) VH: EVQLLESGGGLVQPGGSLRLSCAASGFTFDDYAMSWVRQAPGKGLEWVSAIGSGGSTYYADSVKGRFTISRDNSKNTLYLQMNSLRAEDTAVYYCAREGYDSSGYYHLDYWGQGTLVTVSS VL: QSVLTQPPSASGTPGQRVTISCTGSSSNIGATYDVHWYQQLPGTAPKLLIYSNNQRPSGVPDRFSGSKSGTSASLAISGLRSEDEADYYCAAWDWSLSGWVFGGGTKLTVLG 0.15 nM

Data credit: patent US20240010750A1
